compounds and their reported z-score
Experiment: fission yeast growth modulation, primary screen, strain 972, OD600, 24 h, no modulator (AID 1090);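 note: basal condition with compound alone and no growth modifier present; test concentration not given here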
Details: S. pombe 972 growth, higher = more signal, called active from +8 up or from −8 down
Please reply with the value in numeric form only.

compound	z-score
COc1cccc([C@H]2Oc3ccc(OC)cc3C(=NOCC[C@@H]3C=C[C@H](OC(C)=O)[C@@H](COC(C)=O)O3)[C@@H]2O)c1	0.594
CC(=O)OC[C@H]1O[C@H](CC=NOC[C@@H](O)COCc2ccco2)C=C[C@@H]1OC(C)=O	-0.0992
C#CCCCON=C1[C@H]2CCn3c(=O)n([C@@H](CC)c4ccccc4)c(=O)n3[C@H]2[C@H](O)[C@@H]2O[C@H]12	-1.1

Here is another compound to look at.
Any idea what its z-score is? The compound is C=CC[C@@H]1C=CC(ON=C(C)C)[C@@H](CO)O1 (some centres undefined)
0.446

====

compounds and their reported composite z-score
System: Lefty1
Experiment: Lefty1 binders on small-molecule microarrays, primary screen, biochemical, small-molecule microarray, 635/667 nm fluorescence (AID 1139)
Conditions: small-molecule microarray binding, fluorescence 635/667; higher = more signal
Please reply with the value in numeric form only.

For orientation, consider the following solved cases.
compound	readoutValue
O=C1C2=CC[C@H]3C(=O)N(C[C@@H]4CCCO4)C(=O)[C@H]3[C@H]2[C@H](O)[C@@H]2O[C@H]12	0.233
CC#CCOCCC=C1c2ccccc2[C@@H](OC)[C@@H]1C	1.24
CCN1C(=O)[C@H]2[C@H]3[C@H](O)[C@H](O)CC(=NNC(=O)OCc4ccccc4)[C@@H]3CC[C@H]2C1=O	0.066
COC(=O)CC=C1c2ccccc2[C@H](OC)[C@H]1C	0.338
C[C@H]1CC[C@H]2C(=O)OC(COc3ccc(C(C)(C)C)cc3)CN2[C@@H]1c1ccc(Br)cc1 (some centres not stated)	0.334

Here is another compound to look at.
Any idea what its composite z-score is? The compound is `C[C@@H](c1ccccc1)N1C(=O)[C@H]2[C@H]3[C@H](O)[C@H](O)CC(=NOC[C@@H](O)COCc4ccco4)[C@H]3CC[C@H]2C1=O`
1.05

====

molecules and their reported z-score
Molecular target: NADPH oxidase 4 (Homo sapiens)
Assay: NOX4-dependent H2O2 signal modulators, primary screen, NOX inhibitor project, cell-based, HEK293-NOX4, tetracycline-induced, Amplex Red fluorescence (AID 1160)
Conditions: 45 min, higher = more signal, called active from +8 up or from −8 down
Please reply with the value in numeric form only.

For orientation, consider the following solved cases.
molecule	z-score
Cc1cc2c(nc1C)CCCCN2CC(O)CN1CCCc2nc(-c3ccc(Br)cc3)ccc21 (centres undefined)	0.175
COC(=O)CC=C[C@@H](C)[C@@H](C=NOC(C)CN1CCCCc2nc(C)c(C)cc21)NS(=O)(=O)c1ccc(C)cc1 (some centres undefined)	0.339
CCN1C(=O)[C@H]2[C@H]3[C@H](O)[C@H](O)CC(=NO[C@H](C)c4cn([C@@H]5COC[C@H]5O)nn4)[C@@H]3CC[C@H]2C1=O	0.226
CCOC(=O)[C@H](Cc1ccccc1)NC(=O)CCC1CC(OC(=O)NCc2cccc3ccccc23)CC2(CCCC(COC(=O)NCCOc3ccccc3)O2)O1 (some centres undefined)	0.762
CCN1C(=O)[C@H]2[C@H]3[C@H](O)[C@H](O)CC(=NO[C@@H](C)c4cc(-c5c(C)cc(C)cc5C)no4)[C@@H]3CC[C@H]2C1=O	0.175

Any idea what its z-score is? The molecule is `CO[C@@H]1C=CCC(=O)N[C@@H](C)C(=O)OC[C@@H](OC)[C@H](C)C=CCC(=O)OC[C@H]1C`
0.0964

What do you have for COC(=O)[C@H](C)NC(=O)CCC1CC(OC(=O)NCc2cccc3ccccc23)CC2(CCCC(COC(=O)NCc3cccc(C(F)(F)F)c3)O2)O1 (some centres undefined) ?
-0.179

What do you have for `CCN1C(=O)[C@H]2[C@H]3[C@H](O)[C@H](O)CC(=NO[C@H](C)c4cn([C@H](CO)Cc5ccccc5)nn4)[C@@H]3CC[C@H]2C1=O` ?
0.293

What do you have for `CC[C@@H](c1ccccc1)n1c(=O)n2n(c1=O)[C@H]1[C@H](O)[C@@H]3O[C@@H]3C(=NOCc3ccccc3)[C@H]1CC2` ?
-0.989

====

compounds and their reported z-score
Test: adipocyte viability effects, profiling panel, cell-based, 3T3-L1 adipocytes, calcein-AM fluorescence, 48 h, basal (AID 1163); note: test concentration not given here
Settings: 3T3-L1 adipocytes viability, higher = more signal
Please reply with the value in numeric form only.

compound	z-score
CC(=O)OC[C@H]1O[C@H](CC=NOC(C)CN2CCCc3nc(C)c(C)cc32)C=C[C@@H]1OC(C)=O (some centres undefined)	0.114

Any idea what its z-score is? The compound is `OC[C@H]1O[C@H](C#Cc2ccccc2)C=C[C@@H]1O`
0.0466

What do you have for `CC(C)CON=C1C[C@@H](O)[C@@H](O)[C@@H]2[C@@H]3C(=O)N(c4ccc(F)cc4F)C(=O)[C@@H]3CC[C@@H]12` ?
0.44

What do you have for CCOC(=O)[C@H](Cc1ccccc1)NC(=O)CCC1CC(OC(=O)NCc2ccc3c(c2)OCO3)CC2(CCCC(COC(=O)NCCOc3ccccc3)O2)O1 (some centres undefined) ?
-0.317

What do you have for `CC(C)=CCCC(C)=CCON=C1[C@H]2CCn3c(=O)n(-c4ccccc4)c(=O)n3[C@H]2[C@H](O)[C@@H]2O[C@H]12` ?
-0.141

====

Test: S. cerevisiae growth modulation with rapamycin, primary screen, strain BY4716, OD600, 96 h (AID 1091); note: test concentration not given here
Settings: higher = more signal, called active from +8 up or from −8 down
experimentalReadout: z-score
Please reply with the value in numeric form only.

Any idea what its z-score is? The molecule is `C#CCCCON=C1C[C@@H](O)[C@@H](O)[C@@H]2[C@@H]3C(=O)N(C[C@@H]4CCCO4)C(=O)[C@@H]3CC[C@H]12`
0.749

What do you have for CC1(C)O[C@H]2OC([C@H](O)CON3C(=O)c4ccccc4C3=O)[C@H](O)[C@H]2O1 (stereo not given in full) ?
-0.425

What do you have for `CC(=O)OC[C@H]1O[C@H](C#CCCc2ccccc2)C=C[C@@H]1OC(C)=O` ?
-0.116

What do you have for `COC(=O)CC=C1c2ccccc2[C@H](OC)[C@H]1C` ?
0.387

What do you have for `COc1cccc([C@H](O)Cn2cc(-c3ccc(CON=C(C)C)cc3)nn2)c1` ?
-0.625

What do you have for `CC(CCC(=O)OC[C@H]1O[C@H](C#Cc2ccccc2)C=C[C@@H]1Oc1ccc(C)cc1)=NO[C@@H](C)c1cc(-c2c(C)cc(C)cc2C)no1` ?
0.361

What do you have for `CC(C)[C@@H](OCc1ccccc1)[C@H](C)C=NO[C@@H](C)c1cn([C@H](CO)Cc2ccccc2)nn1` ?
-1.14

What do you have for CCOC(=O)[C@H](CC(C)C)NC(=O)CCC1CC(OC(=O)NCc2ccc3c(c2)OCO3)CC2(CCCC(COC(=O)NCCc3ccc(Cl)cc3)O2)O1 (stereo not given in full) ?
-1.81

What do you have for `CON=C1c2cc(OC)ccc2O[C@H](c2cccc(OC)c2)[C@H]1O` ?
-1.75

What do you have for `CCCNC(=O)OC[C@H]1O[C@H](CCON=C2c3cc(OC)ccc3O[C@H](c3cccc(OC)c3)[C@H]2O)C=C[C@@H]1Oc1ccc(OC)cc1` ?
0.479

What do you have for `CC(C)=CCCC(C)=CCON=C1C[C@@H](O)[C@@H](O)[C@@H]2[C@@H]3C(=O)N([C@@H](C)c4ccccc4)C(=O)[C@@H]3CC[C@@H]12` ?
-0.362

What do you have for `CCOC(=O)CCN1C(=O)[C@H]2[C@H]3[C@H](O)[C@H](O)CC(=NOCC=C(C)CCC=C(C)C)[C@@H]3CC[C@H]2C1=O` ?
-0.44

What do you have for `CCCNC(=O)OC[C@H]1O[C@H](CCON=C[C@@H](C)[C@H](OCc2ccccc2)C(C)C)C=C[C@@H]1Oc1ccc(OC)cc1` ?
-0.25

What do you have for `COc1cccc([C@H]2Oc3ccc(OC)cc3C(=NOCC[C@@H]3C=C[C@H](OC(C)=O)[C@@H](COC(C)=O)O3)[C@@H]2O)c1` ?
0.0357

What do you have for `COc1ccc(COC(=O)NN=C2C[C@@H](O)[C@@H](O)[C@@H]3[C@@H]4C(=O)N(Cc5ccc6c(c5)OCO6)C(=O)[C@@H]4CC[C@H]23)cc1` ?
-0.369
